tested on: Hepatocyte; assay: Hepatoprotective activity against mouse hepatocytes assessed as inhibition of D-galactosamine/TNFalpha-induced cell death at 200 uM after 18 hrs by MTT assay; assay type: functional
Kindly state inhibition at 200 µM for each of the entries shown.
Please give a number only; it is taken to be in %.

Query (molecule): Oc1cc(O)c2c(c1)O[C@H](c1cc(O)c(O)c(O)c1)[C@@H](O)C2 ; field requested: inhibition at 200 µM
33.5

Query (molecule): Oc1cc(O)c2c(c1)O[C@H](c1ccc(O)c(O)c1)[C@H](O)C2 [(-)-EPICATECHIN] ; field requested: inhibition at 200 µM
98.9

Query (molecule): COc1cc(C2Oc3cc([C@H]4Oc5cc(O)cc(O)c5C(=O)[C@@H]4O)ccc3OC2CO)ccc1O (some centres undefined) ; field requested: inhibition at 200 µM
70.8

Query (molecule): CC1(C)CC[C@]2(C(=O)O)CC[C@]3(C)C(=CC[C@@H]4[C@@]5(C)C[C@@H](O)[C@H](O)[C@@](C)(CO)[C@@H]5CC[C@]43C)[C@@H]2[C@@H]1O ; field requested: inhibition at 200 µM
46.2
